Reported Emax is given for each of the following molecules.
target_entity: hMOR (Homo sapiens)
measurement_description: cell-based
Set-up: expressed in transfected cells
stated_conditions: CHO, read-out: MOR Emax ± SEM (%)
observed_property: Emax (%)

In [3]: df
Out[3]:
                                   molecule  observed_property  endpoint_value
0      COC(=O)CC1CCN(CCc2c[nH]c3ccccc23)CC1               Emax            23.8
1  C[C@@H](NC(=O)[C@@H](N)Cc1ccc(O)cc1)C(=O)NCC(=O)N(C)[C@@H](Cc1ccccc1)C(=O)NCCO [DAMGO, reference compound]               Emax             106
2  CC[C@@H]1CN2CCc3c([nH]c4ccccc34)[C@@H]2C[C@@H]1/C(=C\OC)C(=O)OC [Corynantheidine, reference compound]               Emax            8.32
3  CC[C@@H]1CN2CCc3c([nH]c4cccc(OC)c34)[C@@H]2C[C@@H]1/C(=C\OC)C(=O)OC [Mitragynine, mitragynine, reference compound]               Emax            3.97

====

target_entity: hMOR (Homo sapiens, UniProt P35372)
Sequence (P35372 whole entry): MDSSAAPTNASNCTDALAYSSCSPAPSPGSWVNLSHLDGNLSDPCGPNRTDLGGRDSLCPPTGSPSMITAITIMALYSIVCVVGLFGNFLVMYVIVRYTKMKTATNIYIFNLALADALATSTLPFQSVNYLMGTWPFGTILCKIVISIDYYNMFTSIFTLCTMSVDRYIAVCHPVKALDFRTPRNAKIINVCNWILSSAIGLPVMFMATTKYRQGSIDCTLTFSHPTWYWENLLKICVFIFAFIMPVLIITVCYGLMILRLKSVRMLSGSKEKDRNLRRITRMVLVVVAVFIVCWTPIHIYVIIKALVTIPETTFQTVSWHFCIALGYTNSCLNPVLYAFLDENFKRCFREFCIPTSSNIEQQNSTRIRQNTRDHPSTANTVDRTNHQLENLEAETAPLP
measurement_description: Radioligand binding assay (Eurofins Cerep), [3H]DAMGO displacement
stated_conditions: Table 3-6; 3 independent experiments; read-out: Ki (nM ± SEM) MOR
observed_property: Ki (nM)

>>> df
                                   molecule                        target_entity  uom  value_comparator  endpoint_value
0      COC(=O)NC1CCN(CCc2c[nH]c3ccccc23)CC1  hMOR (Homo sapiens, UniProt P35372)   nM                 =            1890
1      COC(=O)CN1CCN(CCc2c[nH]c3ccccc23)CC1  hMOR (Homo sapiens, UniProt P35372)   nM                 =            2030
2      COC(=O)CC1CCN(CCc2c[nH]c3ccccc23)CC1  hMOR (Homo sapiens, UniProt P35372)   nM                 =            2230
3  COC(=O)CC1CCN(CCc2c[nH]c3cccc(OC)c23)CC1  hMOR (Homo sapiens, UniProt P35372)   nM                 >           10000
4  COC(=O)CN1CCN(CCc2c[nH]c3cccc(OC)c23)CC1  hMOR (Homo sapiens, UniProt P35372)   nM                 >           10000
5  COCC(C(=O)OC)C1CCN(CCc2c[nH]c3ccccc23)CC1 (stereo not shown)  hMOR (Homo sapiens, UniProt P35372)   nM                 =            5580
6  CO/C=C(/C(=O)OC)C1CCN(CCc2c[nH]c3ccccc23)CC1  hMOR (Homo sapiens, UniProt P35372)   nM                 =             451

====

target_entity: α2C adrenergic receptor (Homo sapiens)
Construct: Eurofins Cerep (contract screening)
Sequence (P18825 1-462): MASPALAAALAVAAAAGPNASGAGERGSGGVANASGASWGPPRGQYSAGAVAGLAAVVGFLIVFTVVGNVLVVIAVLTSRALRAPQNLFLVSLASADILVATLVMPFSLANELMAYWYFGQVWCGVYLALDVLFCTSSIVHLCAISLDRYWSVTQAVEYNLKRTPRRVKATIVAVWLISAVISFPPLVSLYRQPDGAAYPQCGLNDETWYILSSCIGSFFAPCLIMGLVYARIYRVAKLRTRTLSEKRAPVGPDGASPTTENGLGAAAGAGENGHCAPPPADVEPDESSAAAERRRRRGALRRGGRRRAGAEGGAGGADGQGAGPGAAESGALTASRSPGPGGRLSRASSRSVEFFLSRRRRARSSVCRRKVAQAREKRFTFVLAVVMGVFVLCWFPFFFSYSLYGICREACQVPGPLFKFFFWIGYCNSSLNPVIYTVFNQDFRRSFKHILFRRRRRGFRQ
measurement_description: Radioligand binding assay (Eurofins Cerep), [3H]RX 821002 displacement
stated_conditions: Alpha2C Ki ± SEM (nM), Table A1, data summary #1
observed_property: Ki (nM)

                                   compound  observed_property  uom  endpoint_value
0  CC[C@@H]1CN2CCc3c([nH]c4cccc(OC)c34)[C@@H]2C[C@@H]1/C(=C\OC)C(=O)OC [Mitragynine, mitragynine, reference compound]                 Ki   nM            4040

====

target_entity: α2A adrenergic receptor (Homo sapiens, UniProt P08913)
Construct: Eurofins Cerep (contract screening)
Sequence (P08913 whole entry): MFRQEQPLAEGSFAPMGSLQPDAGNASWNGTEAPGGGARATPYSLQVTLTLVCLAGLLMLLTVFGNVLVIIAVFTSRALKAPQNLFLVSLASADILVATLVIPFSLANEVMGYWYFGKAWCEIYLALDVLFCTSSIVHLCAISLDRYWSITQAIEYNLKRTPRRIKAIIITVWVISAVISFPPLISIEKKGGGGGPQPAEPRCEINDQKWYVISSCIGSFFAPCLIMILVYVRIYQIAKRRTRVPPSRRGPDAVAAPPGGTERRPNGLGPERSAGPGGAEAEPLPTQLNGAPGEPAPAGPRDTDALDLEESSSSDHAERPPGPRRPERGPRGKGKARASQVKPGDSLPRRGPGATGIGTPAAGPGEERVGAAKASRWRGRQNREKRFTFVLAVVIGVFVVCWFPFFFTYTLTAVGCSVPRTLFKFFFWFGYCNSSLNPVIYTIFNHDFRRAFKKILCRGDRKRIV
measurement_description: Radioligand binding assay (Eurofins Cerep), [3H]RX 821002 displacement
stated_conditions: Ki (nM ± SEM) a2A-AR, Table 3-2; 3 independent experiments
Below: a set of entries, each annotated with reported Ki.
observed_property: Ki

                                        mol  observed_property  endpoint_value
0  COC=C(C(=O)OC)C1CCN(CCc2c[nH]c3c(OC)cccc23)CC1                 Ki         4900 nM
1  COC=C(C(=O)OC)C1CCN(CCc2c[nH]c3cc(OC)ccc23)CC1                 Ki      > 10000 nM
2  COC=C(C(=O)OC)C1CCN(CCc2c[nH]c3ccc(OC)cc23)CC1                 Ki         3370 nM
3      COC(=O)CC1CCN(CCc2c[nH]c3ccccc23)CC1                 Ki         1410 nM
4  CO/C=C(/C(=O)OC)C1CCN(CCc2c[nH]c3ccccc23)CC1                 Ki          741 nM
5  COC(=O)CC1CCN(CCc2c[nH]c3cccc(OC)c23)CC1                 Ki          229 nM
6  COC(=O)CC1CCN(CCc2c[nH]c3ccc(OC)cc23)CC1                 Ki         1590 nM
7  COC(=O)CC1CCN(CCc2c[nH]c3cc(OC)ccc23)CC1                 Ki         2840 nM
8  COC(=O)CC1CCN(CCc2c[nH]c3c(OC)cccc23)CC1                 Ki         1300 nM

====

target_entity: hMOR (Homo sapiens)
measurement_description: Radioligand binding assay (Eurofins Cerep), [3H]DAMGO displacement
stated_conditions: Table 3-6
observed_property: SR: Selectivity Ratio (KiMOR/Kiα2A)

In [3]: df
Out[3]:
                                   compound                    observed_property  endpoint_value
0      COC(=O)NC1CCN(CCc2c[nH]c3ccccc23)CC1  SR: Selectivity Ratio (KiMOR/Kiα2A)            0.37
1  COCC(C(=O)OC)C1CCN(CCc2c[nH]c3ccccc23)CC1 (centres unmarked)  SR: Selectivity Ratio (KiMOR/Kiα2A)            2.02
2      COC(=O)CC1CCN(CCc2c[nH]c3ccccc23)CC1  SR: Selectivity Ratio (KiMOR/Kiα2A)            1.58
3  CO/C=C(/C(=O)OC)C1CCN(CCc2c[nH]c3ccccc23)CC1  SR: Selectivity Ratio (KiMOR/Kiα2A)            0.61
4      COC(=O)CN1CCN(CCc2c[nH]c3ccccc23)CC1  SR: Selectivity Ratio (KiMOR/Kiα2A)            0.21

====

target_entity: hMOR (Homo sapiens, UniProt P35372)
measurement_description: Radioligand binding assay (Eurofins Cerep), [3H]DAMGO displacement
stated_conditions: Table A4, data summary #2; read-out: MOR Ki ± SEM
pKi: −log10 of the molar value.
observed_property: pKi

>>> print(df.to_string())
                                        mol  observed_property  endpoint_value
0  CC[C@@H]1CN2CCc3c([nH]c4cccc(OC)c34)[C@@H]2C[C@@H]1/C(=C\OC)C(=O)N(C)C                pKi            6.37
1  CC[C@@H]1CN2CC[C@@]3(O)C(=Nc4cccc(OC)c43)[C@@H]2C[C@@H]1/C(=C\OC)C(=O)N(C)C                pKi            7.05
2  CC[C@@H]1CN2CCc3c([nH]c4cccc(OC)c34)[C@@H]2C[C@@H]1/C(=C\OC)C(=O)N1CCCC1                pKi            6.18
3  CC[C@@H]1CN2CCc3c([nH]c4cccc(OC)c34)[C@@H]2C[C@@H]1/C(=C\OC)C(=O)N(C)C1CCCC1                pKi            7.17
